FYI, the data here is from ChEMBL document CHEMBL1944567.

pIC50 values by entry
- assayed system: Low molecular weight protein-tyrosine phosphatase A (Mycobacterium tuberculosis, UniProt P9WIA1)
- Sequence (P9WIA1 whole entry): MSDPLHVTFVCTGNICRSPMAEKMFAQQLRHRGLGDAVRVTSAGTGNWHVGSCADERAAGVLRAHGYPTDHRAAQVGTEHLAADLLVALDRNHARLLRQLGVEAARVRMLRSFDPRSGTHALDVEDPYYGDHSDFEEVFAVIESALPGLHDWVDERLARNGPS
- assay info: Inhibition of Mycobacterium tuberculosis PTP-A using p-nitrophenyl phosphate as substrate measured for 10 mins by spectrofluorimetry
# reply with the number alone; pIC50 is -log10 of concentration in mol/L

# annotated cases, reported pIC50 shown
smiles: COc1cc(OC)c(/C=C/C(=O)c2ccc3ccccc3c2)c(OC)c1
result value: 2.78
//
smiles: O=C(/C=C/c1ccc(-c2cc(C(F)(F)F)ccc2Cl)o1)c1ccc2c(c1)OCO2
result value: 3.76
//
smiles: O=C(/C=C/c1ccc(Br)cc1)c1ccc2c(c1)OCO2
result value: 4.18

Query: # get_value(readout='pIC50', item= `O=C(/C=C/c1ccc2ccccc2c1)c1ccc(-n2ccnc2)cc1` )
Response: 4.00

Query: # get_value(readout='pIC50', item= `O=C(/C=C/c1ccc2c(c1)OCO2)c1ccc([N+](=O)[O-])cc1` )
Response: 4.21

Query: # get_value(readout='pIC50', item= `COc1ccc2nc(Cl)c(/C=C/C(=O)c3ccc4c(c3)OCO4)cc2c1` )
Response: 4.03

Query: # get_value(readout='pIC50', item= `COc1ccc(C(=O)/C=C/c2ccc(OCc3ccccc3)c(OC)c2)c(OC)c1` )
Response: 4.82

Query: # get_value(readout='pIC50', item= `O=C(/C=C/c1ccc2ccccc2c1)c1ccc2ccccc2c1` )
Response: 4.03

Query: # get_value(readout='pIC50', item= `O=C(/C=C/c1ccc(Cl)cc1)c1ccc2c(c1)OCO2` )
Response: 3.93

----------
inhibition values by entry
- assayed system: Phosphotyrosine-protein phosphatase PTPB (Mycobacterium tuberculosis)
- Sequence (whole entry): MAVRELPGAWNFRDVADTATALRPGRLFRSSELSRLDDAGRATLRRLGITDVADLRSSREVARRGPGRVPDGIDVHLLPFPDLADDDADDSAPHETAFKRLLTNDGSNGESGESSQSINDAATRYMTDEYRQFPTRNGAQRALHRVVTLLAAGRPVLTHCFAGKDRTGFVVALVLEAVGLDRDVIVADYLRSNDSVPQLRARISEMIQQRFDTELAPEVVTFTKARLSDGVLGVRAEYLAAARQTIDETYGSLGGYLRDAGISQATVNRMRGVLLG
- assay info: Inhibition of Mycobacterium tuberculosis PTP-B using p-nitrophenyl phosphate as substrate at 25 uM measured for 10 mins by spectrofluorimetry
Report field: quantity (unit follows the number).

# annotated cases, reported inhibition shown
smiles: COc1cc(OC)c(/C=C/C(=O)c2ccc3c(c2)OCO3)c(OC)c1
result value: 0%

smiles: O=C(/C=C/c1cccc(Br)c1)c1ccc2ccccc2c1
result value: 20%

smiles: O=C(/C=C/c1ccc(F)cc1)c1ccc2c(c1)OCO2
result value: 0%

smiles: Cc1ccc(/C=C/C(=O)c2ccc3c(c2)OCO3)cc1
result value: 0%

smiles: O=C(/C=C/c1cccs1)c1ccc2ccccc2c1
result value: 0%

Query: # get_value(readout='inhibition', item= `CCCCOc1ccc(/C=C/C(=O)c2ccc3ccccc3c2)cc1` )
Response: 17%

Query: # get_value(readout='inhibition', item= `O=C(/C=C/c1ccc([N+](=O)[O-])cc1)c1ccc2ccccc2c1` )
Response: 39%

Query: # get_value(readout='inhibition', item= `O=C(/C=C/c1ccc(-c2ccccc2[N+](=O)[O-])o1)c1ccc2c(c1)OCO2` )
Response: 10%

Query: # get_value(readout='inhibition', item= `O=C(/C=C/c1cccc(Cl)c1)c1ccc2c(c1)OCO2` )
Response: 0%

Query: # get_value(readout='inhibition', item= `O=C(/C=C/c1cccc(Br)c1)c1ccc2c(c1)OCO2` )
Response: 0%

Query: # get_value(readout='inhibition', item= `Cc1ccc(C(=O)/C=C/c2ccc3ccccc3c2)cc1` )
Response: 34%
